# assay.info: HPLC of 5-ASA in serum and tissues with internal 4-ASA standard
# Assay type: in vivo, mice
# condition.set: mouse, colon and small bowel relative to serum, oral
recorded.endpoint: Kp

# Kp (compound: `Nc1ccc(O)c(C(=O)O)c1` ) is ~20
